pIC50: −log10 of the molar value.
Below are pIC50 values recorded for Thromboxane-A synthase (Homo sapiens).

[
  {
    "compound": "CS(=O)(=O)c1ccc(S(=O)(=O)NCCCCC(CCCc2cccnc2)CCC(=O)O)cc1 (stereo not given)",
    "pIC50": 8.40
  },
  {
    "compound": "[N-]=[N+]=Nc1ccc(S(=O)(=O)NCCCCC(CCCc2cccnc2)CCC(=O)O)cc1 (stereo not given)",
    "pIC50": 8.40
  },
  {
    "compound": "O=C(O)CCC(CCCCNS(=O)(=O)c1ccc(Cl)cc1)CCCc1cccnc1 (stereo not given)",
    "pIC50": 7.70
  },
  {
    "compound": "O=C(O)CCC(CCCCNS(=O)(=O)c1ccc(C(F)(F)F)cc1)CCCc1cccnc1 (stereo not given)",
    "pIC50": 8.70
  },
  {
    "compound": "O=C(O)CCC(C/C=C/c1cccnc1)CCCCNS(=O)(=O)c1ccc(Cl)cc1 (stereo not given)",
    "pIC50": 8.15
  }
]
